# tested.system: Free fatty acid receptor 1 (Homo sapiens, UniProt O14842)
# Sequence (O14842 whole entry): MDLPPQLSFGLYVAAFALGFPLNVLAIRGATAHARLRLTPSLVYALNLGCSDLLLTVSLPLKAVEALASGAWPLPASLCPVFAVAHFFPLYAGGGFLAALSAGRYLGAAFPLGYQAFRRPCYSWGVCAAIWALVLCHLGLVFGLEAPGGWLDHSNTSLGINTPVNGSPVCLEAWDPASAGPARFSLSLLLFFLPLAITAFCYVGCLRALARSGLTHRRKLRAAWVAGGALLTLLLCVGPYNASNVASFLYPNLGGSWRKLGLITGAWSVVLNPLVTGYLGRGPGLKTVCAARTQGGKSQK
# method: Agonist activity at human GPR40 expressed in CHO cells incubated for 60 mins by FLIPR based Ca2+ mobilization assay relative to gamma-linolenic acid
# Format: functional, cell-based
# condition: filed as agonist
measured.quantity: Emax (%)

{"compound": "COc1ccc(C(=O)N(CC(C)(C)C)c2cccc(C)n2)c(N2CCC(COc3cc([C@@H](CC(=O)O)C4CC4)ccn3)CC2)c1", "tested.system": "Free fatty acid receptor 1 (Homo sapiens, UniProt O14842)", "measured.quantity": "Emax", "value.observed": 108}
{"compound": "COc1ccc(C(=O)N(CC(C)(C)C)c2ccccn2)c(N2CCC(COc3cccc(C(CC(=O)O)C4CC4)c3)CC2)c1 (centres undefined)", "tested.system": "Free fatty acid receptor 1 (Homo sapiens, UniProt O14842)", "measured.quantity": "Emax", "value.observed": 110}
{"compound": "COc1ccc(CCCC(C)(C)C)c(-c2ccc(COc3cccc(C(CC(=O)O)C4CC4)c3)cc2)c1 (centres undefined)", "tested.system": "Free fatty acid receptor 1 (Homo sapiens, UniProt O14842)", "measured.quantity": "Emax", "value.observed": 105}
{"compound": "COc1ccc(C(C)C)c(N2CCC(COc3cccc(C(CC(=O)O)C4CC4)c3)CC2)c1 (centres undefined)", "tested.system": "Free fatty acid receptor 1 (Homo sapiens, UniProt O14842)", "measured.quantity": "Emax", "value.observed": 117}
{"compound": "COc1ccc(C(=O)N(CC(C)(C)C)c2cccc(C)n2)c(N2CCC(COc3cccc(C(CC(=O)O)OC)c3)CC2)c1 (centres undefined)", "tested.system": "Free fatty acid receptor 1 (Homo sapiens, UniProt O14842)", "measured.quantity": "Emax", "value.observed": 109}
{"compound": "COc1ccc(C(=O)N(C)c2ccccn2)c(N2CCC(COc3cccc(C(CC(=O)O)C4CC4)c3)CC2)c1 (centres undefined)", "tested.system": "Free fatty acid receptor 1 (Homo sapiens, UniProt O14842)", "measured.quantity": "Emax", "value.observed": 105}
{"compound": "COc1ccc(C(=O)N(CC(C)(C)C)c2cccc(C)n2)c(N2CCC(COc3cccc(C4(CC(=O)O)COC4)c3)CC2)c1", "tested.system": "Free fatty acid receptor 1 (Homo sapiens, UniProt O14842)", "measured.quantity": "Emax", "value.observed": 115}
{"compound": "COc1ccc(F)c(N2CCC(COc3cccc(C(CC(=O)O)C4CC4)c3)CC2)c1 (centres undefined)", "tested.system": "Free fatty acid receptor 1 (Homo sapiens, UniProt O14842)", "measured.quantity": "Emax", "value.observed": 114}
{"compound": "COc1ccc(F)c(-c2ccc(COc3cccc([C@@H](CC(=O)O)C4CC4)c3)cc2C2=CCCC2(C)C)c1", "tested.system": "Free fatty acid receptor 1 (Homo sapiens, UniProt O14842)", "measured.quantity": "Emax", "value.observed": 182}
